This collection of values is drawn from PubChem BioAssay (NCI).

For each record, write down the corresponding growth.
Tested on: NCI-H322M lung
Experiment: NCI-60 one-dose screen, 48 h (100 = growth as untreated, 0 = no growth, -100 = all killed)
Conditions: 10 µM unless noted
Compounds without any hit were thinned out: in the full panel of roughly 83,000, 20% have a hit.
The response must be a number in % with no trailing unit.

Form field, growth with NCI-H322M lung, item CCOC(=O)C(C)(CSSCC(C)(NC(=O)c1ccc2ccccc2c1)C(=O)OCC)NC(=O)c1ccc2ccccc2c1 (stereo not given) : 96.7

NCI-H322M lung assay, compound `CCOC(=O)n1cnc2c(Cl)ncnc21` , recorded growth = 109

Query `N#Cc1c(N)nc(Cl)c(C#N)c1C(=O)c1ccccc1` on NCI-H322M lung; growth returned: 96.5

Here `COc1ccc(/C(Cl)=N/N=C(\Cl)c2cc(OC)c(OC)c(OC)c2)cc1OC(C)=O` was tested on NCI-H322M lung, and its growth came to 95.1

Query `COc1ccccc1P(c1ccccc1OC)c1ccccc1OC` on NCI-H322M lung; growth returned: 87.5

Hey, NCI-H322M lung data for `CC(C)CCC[C@@H](C)[C@H]1CC[C@H]2[C@@H]3CC=C4N(c5ccccc5)C(=O)CC[C@]4(C)[C@H]3CC[C@]12C` : growth came out at 98.3

The value of growth recorded for `COc1ccc(C(=O)NC(=O)Nc2ccc3c(c2)NC(=O)/C3=C\c2[nH]c(C)c(C(=O)O)c2C)c(F)c1` when tested on NCI-H322M lung reads 45

Record `c1ccc(-c2nc3sc(C(c4ccccc4)c4ccccc4)nn3c2-c2ccccc2)cc1` / NCI-H322M lung, growth recorded as 93.6

Field growth (NCI-H322M lung), entry `NC(=NCCCOc1ccc(F)cc1)Nc1ccc(Cl)c(Cl)c1` : 69.3

Record for `O=[N+]([O-])c1cccc(C2c3ccccc3Oc3ccccc32)c1` under target or system NCI-H322M lung: growth reported as 83.6
